Target: Peroxisome proliferator-activated receptor gamma (Homo sapiens) (UniProt P37231)
Sequence (whole entry): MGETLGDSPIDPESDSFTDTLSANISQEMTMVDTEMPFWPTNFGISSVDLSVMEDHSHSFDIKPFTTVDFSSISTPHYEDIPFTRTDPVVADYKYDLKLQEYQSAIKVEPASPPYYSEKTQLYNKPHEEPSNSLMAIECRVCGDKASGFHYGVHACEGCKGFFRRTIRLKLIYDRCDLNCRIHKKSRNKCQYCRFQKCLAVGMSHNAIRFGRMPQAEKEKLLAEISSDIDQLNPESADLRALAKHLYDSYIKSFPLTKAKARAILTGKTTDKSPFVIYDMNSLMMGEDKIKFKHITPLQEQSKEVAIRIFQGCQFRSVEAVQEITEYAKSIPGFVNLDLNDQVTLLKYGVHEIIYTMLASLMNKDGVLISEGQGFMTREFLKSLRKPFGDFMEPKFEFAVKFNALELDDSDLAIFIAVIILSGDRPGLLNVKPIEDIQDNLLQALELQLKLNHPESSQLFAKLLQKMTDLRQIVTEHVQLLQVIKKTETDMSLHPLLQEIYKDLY
Assay: Ratio between agonistic efficacy in PPAR gamma
Type: functional
Conditions: Cercopithecidae
Property name: Ratio

C/C(=C/C=C/C(C)=C/C(=O)O)c1cc(C(C)(C)C)cc(C(C)(C)C)c1OCCCF | 60

1 = COc1c(-c2csc3ccc(/C(C)=C/C(=O)O)cc23)cc(C(C)C)cc1C(C)C
2 = C/C(=C\C(=O)O)c1ccc2[nH]cc(-c3cc(C(C)(C)C)cc(C(C)(C)C)c3OCC(F)F)c2c1
Lab note: record which item had the higher Ratio, 1 or 2 . Your choice should be expressed through its label.
2

A = CCCCOc1c(-c2cn(C)c3ccc(/C(C)=C/C(=O)O)cc23)cc(C(C)C)cc1C(C)C
B = CCOc1c(-c2[nH]nc3ccc(/C(C)=C/C(=O)O)cc23)cc(C(C)C)cc1C(C)C
C = C/C(=C\C(=O)O)c1ccc2scc(-c3cc(C(C)C)cc(C(C)C)c3O)c2c1
D = CCCCOc1c(\C(C)=C/C=C/C(C)=C/C(=O)O)cc(C(C)C)cc1C(C)C
Ascending by Ratio, please: list the compounds accordingly. Dear reader, please state the labels in the requested order.
D, A, C, B

A = CCCCOc1c(-c2cccc3[nH]c(/C(C)=C/C(=O)O)cc23)cc(C(C)C)cc1C(C)C
B = CCOc1c(\C(C)=C/C=C/C(C)=C/C(=O)O)cc(C(C)C)cc1C(C)C
Hey, between A and B which has a smaller measured Ratio? Your choice should be expressed through its label.
A
(A: 24.9, B: 38)

I = CCCCOc1c(-c2c[nH]c3ccc(/C(C)=C/C(=O)O)cc23)cc(C(C)(C)C)cc1C(C)(C)C
II = CCCOc1c(-c2c[nH]c3ccc(/C(C)=C/C(=O)O)cc23)cc(C(C)(C)C)cc1C(C)(C)C
Record comparison, field Ratio: mark the lower of I and II . Please indicate the selected item by its label.
I
(I: 105, II: 173)

A = C/C(=C\C(=O)O)c1ccc2scc(-c3cc(C(C)C)cc(C(C)C)c3OCCCF)c2c1
B = CCOc1c(-c2noc3ccc(/C(C)=C/C(=O)O)cc23)cc(C(C)C)cc1C(C)C
Lower Ratio: A or B ? Mark your answer with the label of the selected entry.
B

I = CCOc1c(-c2csc3cnc(/C(C)=C/C(=O)O)cc23)cc(C(C)C)cc1C(C)C
II = CCOc1c(-c2cnc3ccc(/C(C)=C/C(=O)O)cn23)cc(C(C)C)cc1C(C)C
Decide: I or II , by lowest recorded Ratio. Return value: the label identifying the chosen record.
II
